# assay_protocol: inhibitors of TNFa-induced NFkB p65 translocation, primary screen, imaging, HUVEC, MLSMR starter and 10KST1 sets (AID 438);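 further: compound added about 3h40 before a 20 min TNFalpha stimulation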
# condition_set: HUVEC TNFa-induced p65 nuclear translocation; measured here: nuclei count (cytotoxicity indicator), at 2.08 µM
measured_parameter: cell count

molecule	cell count
O=C(CSc1ncnc2nc[nH]c12)c1ccc(Cl)cc1	728
Cc1ccc(S(=O)(=O)NC(=O)c2cc(C)n(CCCn3ccnc3)c2C)cc1	218
Cc1cc(C(=O)NCCCc2ccccc2)no1	765

Let us move to another entry and its cell count.
// field: cell count; key: COc1cccc(C2C3=C(N=C4SCC(=O)N42)c2ccccc2CC3)c1OC (centres undefined) ; value = 680

====

# tested_on: Alpha-2C adrenergic receptor (Homo sapiens) (UniProt P18825)
# Sequence (P18825 whole entry, looked up): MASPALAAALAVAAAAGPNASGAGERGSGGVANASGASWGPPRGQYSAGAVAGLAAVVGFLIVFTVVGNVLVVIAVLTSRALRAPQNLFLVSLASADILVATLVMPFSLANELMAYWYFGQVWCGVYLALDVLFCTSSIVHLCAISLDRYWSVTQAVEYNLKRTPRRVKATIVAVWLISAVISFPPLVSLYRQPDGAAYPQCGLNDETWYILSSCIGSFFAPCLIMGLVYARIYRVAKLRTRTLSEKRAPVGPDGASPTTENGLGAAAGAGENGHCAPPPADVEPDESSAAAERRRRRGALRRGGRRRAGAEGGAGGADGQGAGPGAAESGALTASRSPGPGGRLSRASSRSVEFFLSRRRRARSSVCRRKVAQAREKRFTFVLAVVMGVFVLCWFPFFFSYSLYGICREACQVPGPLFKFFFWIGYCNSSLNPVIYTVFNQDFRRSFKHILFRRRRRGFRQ
# assay_protocol: compounds altering alpha2C-coupled GIRK flux – cell-based, HEK293 alpha2C/GIRK1/2, thallium flux, primary screen (AID 624);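 further: slope of fluorescence ratio to pre-addition baseline per second over 15 to 24 s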
# condition_set: thallium flux BTC fluorescence, at 10 µM, actives lie on both sides
measured_parameter: slope
Note: the reply should be a number with no unit written.

compound	measured_parameter	observed_measurement
COc1ccc(N2CCN(C(=O)COc3ccc4ccccc4c3)CC2)cc1	slope	0.00617

Per the record, O=C(Nc1ccccc1C(=O)N1CCOCC1)C1COc2ccccc2O1 (stereo not drawn) has slope of 0.00506

# slope (compound: `Cn1cnc2cc(NC(=O)c3ccc(Cl)cc3)ccc21` ) is 0.00603

====

Catalogue of molecules with associated slope
# tested_on: Alpha-2C adrenergic receptor (Homo sapiens)
# assay_protocol: compounds altering alpha2C-coupled GIRK flux – cell-based, HEK293 alpha2C/GIRK1/2, thallium flux, primary screen (AID 624);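 further: slope of fluorescence ratio to pre-addition baseline per second over 15 to 24 s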
# condition_set: thallium flux BTC fluorescence, at 10 µM, actives lie on both sides
Could you respond with only the numeric value?

record_smiles	slope
N#Cc1cnc(SCCc2ccccc2)nc1N	0.00492
COC(=O)c1ccccc1NC(=O)C1CCN(S(=O)(=O)c2cc(C)ccc2OC)CC1	0.00507
CCS(=O)(=O)NCCc1cc2c(OC)ccc(OC)c2[nH]c1=O	0.00489

Input `CC(C)CC(=O)Nc1ccccc1-c1nnn(CC(=O)N2CCOCC2)n1` . Output slope: 0.00487

====

# assay_protocol: inhibitors of TNFa-induced NFkB p65 translocation, primary screen, imaging, HUVEC, MLSMR starter and 10KST1 sets (AID 438);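 further: compound added about 3h40 before a 20 min TNFalpha stimulation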;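 on inhibition: signal is the nuclear over cytoplasmic p65 intensity ratio per well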
# condition_set: HUVEC TNFa-induced p65 nuclear translocation; at 2 µM, stronger effect = higher value, 0% TNFa-plus-vehicle, 100% no-TNFa wells
In this section, each of the compounds is paired with its reported inhibition.
Entry rule: numbers only, all in %.

compound	inhibition (%)
c1cc(CNc2ccc3c(c2)OCO3)ccn1	-3.9
Fc1ccccc1C(c1nnnn1Cc1ccc2c(c1)OCO2)N1CCN(Cc2ccccc2)CC1 (stereo unspecified)	-0.8

Summary for this compound, CC(=O)Nc1ccc(OCC(O)Cn2nc(C)nc2C)cc1 (stereo unspecified) : inhibition is 1.5

Form field inhibition, entry Cc1cc(NC(=O)COC(=O)C2COc3ccccc3O2)no1 (stereo unspecified) : -5.3

The reported value for O=C(NCCCN1CCCC1=O)c1ccc2c(c1)NC(=O)C(N1CCOCC1)S2 (stereo unspecified) in terms of inhibition is 7.4

Looking up `O=C(c1ccco1)N1CCN(S(=O)(=O)c2ccc3c(c2)CCN3C(=O)C2CCC2)CC1` , I see its inhibition listed as 1.2
